test: Predicted affinity for imidazoline receptor I2 by three field CoMFA model
property-measured: Ki (nM)
Numbers only, in nM.

Query: Please look up its Ki: c1ccc([C@H]2C[C@@H]2C2=NCCN2)cc1
Response: 251
